system: Mycobacterium tuberculosis; test: Antimycobacterial activity against multidrug-resistant Mycobacterium tuberculosis clinical isolate after 5 days by tetrazolium microplate assay; format: functional; conditions: 120 h
Please provide measured MIC for the entries that follow.

# molecule "O=C(O)c1ccc2[nH]c(-c3ccc([N+](=O)[O-])o3)nc2c1" ; its MIC = > 25 µg/mL

# molecule "COc1cc(C(=O)NNC(=O)c2ccc3[nH]c(-c4ccc([N+](=O)[O-])s4)nc3c2)cc(OC)c1OC" ; its MIC = > 25 µg/mL

# molecule "COc1cccc(C(=O)NNC(=O)c2ccc3[nH]c(-c4ccc([N+](=O)[O-])s4)nc3c2)c1" ; its MIC = 25 µg/mL

# molecule "COc1cccc(C(=O)NNC(=O)c2ccc3[nH]c(-c4ccc([N+](=O)[O-])o4)nc3c2)c1" ; its MIC = 25 µg/mL

# molecule "O=CNNC(=O)c1ccc2[nH]c(-c3ccc([N+](=O)[O-])o3)nc2c1" ; its MIC = > 25 µg/mL

# molecule "COc1ccc(C(=O)NNC(=O)c2ccc3[nH]c(-c4ccc([N+](=O)[O-])o4)nc3c2)cc1OC" ; its MIC = 25 µg/mL

# molecule "O=C(NNC(=O)c1cc2ccccc2cc1O)c1ccc2[nH]c(-c3ccc([N+](=O)[O-])s3)nc2c1" ; its MIC = > 25 µg/mL

# molecule "O=C(NNC(=O)c1ccc2[nH]c(-c3ccc([N+](=O)[O-])o3)nc2c1)c1ccccc1" ; its MIC = 6.25 µg/mL

# molecule "NNC(=O)c1ccncc1" ; its MIC = 4 µg/mL

---

test system: Mycobacterium tuberculosis; assay: Antimycobacterial activity against multidrug-resistant Mycobacterium tuberculosis clinical isolate after 5 days by tetrazolium microplate assay; type: functional; settings: 120 h
endpoint name: MIC (µg/mL)
Just the number please, in µg/mL, no unit attached.

# molecule "O=C(NNC(=O)c1ccc2[nH]c(-c3ccc([N+](=O)[O-])o3)nc2c1)c1cccc(Oc2ccccc2)c1" ; its MIC = 25

# molecule "CO[C@H]1/C=C/O[C@@]2(C)Oc3c(C)c(O)c4c(O)c(c(/C=N/N5CCN(C)CC5)c(O)c4c3C2=O)NC(=O)/C(C)=C\C=C\[C@H](C)[C@H](O)[C@@H](C)[C@@H](O)[C@@H](C)[C@H](OC(C)=O)[C@@H]1C" ; its MIC = 2

# molecule "COc1cc(C(=O)NNC(=O)c2ccc3[nH]c(-c4ccc([N+](=O)[O-])o4)nc3c2)cc(OC)c1OC" ; its MIC = 25

FYI, the data here is from ChEMBL document CHEMBL1681759.
